Hi there, I'd appreciate the recorded Minimum Bactericidal and Fungicidal Concentration (MBC, MFC), Bc for every entry that follows.
Tested on: Bacillus cereus ATCC 10702 NCTC 8035
Experiment: Antimicrobial activity, serial dilution technique in Mueller–Hinton Broth 2
Format: cell-based
Details: average of three ± SD, - means non-active
Numeric only. Scale: µg/mL

Return reported Minimum Bactericidal and Fungicidal Concentration (MBC, MFC), Bc; argument: CCCCCCCCCCCCCCC[P+](C(C)(C)C)(C(C)(C)C)C(C)(C)C [Compound 15b] 15.6

Return reported Minimum Bactericidal and Fungicidal Concentration (MBC, MFC), Bc; argument: CCCCCCCCCCCCCCCCCC[P+](C(C)(C)C)(C(C)(C)C)C(C)(C)C [Compound 18b] 125

Return reported Minimum Bactericidal and Fungicidal Concentration (MBC, MFC), Bc; argument: CCCCCCCCCCCCCCCC[P+](C(C)(C)C)(C(C)(C)C)C(C)(C)C [Compound 16b] 31.3

Return reported Minimum Bactericidal and Fungicidal Concentration (MBC, MFC), Bc; argument: CCCCCCCCCCCCCCCCC[P+](C(C)(C)C)(C(C)(C)C)C(C)(C)C [Compound 17b] 15.6

Every entry's value here was drawn from paper PMC8744835.
